Target: Mitogen-activated protein kinase kinase kinase 14 (Homo sapiens)
Sequence (Q99558 whole entry): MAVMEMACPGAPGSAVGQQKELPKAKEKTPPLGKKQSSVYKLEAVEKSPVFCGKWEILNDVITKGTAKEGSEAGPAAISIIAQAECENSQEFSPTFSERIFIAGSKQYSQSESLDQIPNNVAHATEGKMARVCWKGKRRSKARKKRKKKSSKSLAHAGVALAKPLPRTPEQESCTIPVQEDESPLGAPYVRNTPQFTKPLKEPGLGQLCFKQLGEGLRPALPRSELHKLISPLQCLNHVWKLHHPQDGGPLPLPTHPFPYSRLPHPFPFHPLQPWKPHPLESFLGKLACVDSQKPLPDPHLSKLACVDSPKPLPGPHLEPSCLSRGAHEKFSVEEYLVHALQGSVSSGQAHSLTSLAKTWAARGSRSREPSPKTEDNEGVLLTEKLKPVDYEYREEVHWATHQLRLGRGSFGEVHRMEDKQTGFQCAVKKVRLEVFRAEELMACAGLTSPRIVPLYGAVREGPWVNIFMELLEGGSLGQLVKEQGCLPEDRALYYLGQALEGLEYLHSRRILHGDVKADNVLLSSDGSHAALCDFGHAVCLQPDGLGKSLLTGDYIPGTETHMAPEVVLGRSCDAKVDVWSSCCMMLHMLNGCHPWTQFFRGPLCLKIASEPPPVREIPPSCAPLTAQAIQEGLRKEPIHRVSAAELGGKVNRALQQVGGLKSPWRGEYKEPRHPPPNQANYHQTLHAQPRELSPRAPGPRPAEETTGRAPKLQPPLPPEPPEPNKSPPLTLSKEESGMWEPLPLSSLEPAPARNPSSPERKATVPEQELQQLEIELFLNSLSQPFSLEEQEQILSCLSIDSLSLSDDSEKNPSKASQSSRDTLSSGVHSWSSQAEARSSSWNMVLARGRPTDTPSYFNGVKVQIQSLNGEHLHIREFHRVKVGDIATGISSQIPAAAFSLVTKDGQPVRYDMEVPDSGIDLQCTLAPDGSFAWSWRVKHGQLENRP
Experiment: Inhibition of recombinant human GST-tagged NIK expressed in baculovirus expression system using ser/thr-7 as substrate preincubated for 15 mins followed by ATP addition measured after 60 mins
measurement name: pIC50
Please report pIC50 as the negative decimal logarithm of the molar concentration, giving only the number.

Task: For the compound "CC1=Nc2c(F)cc(-c3nc(Nc4ccc(C5CCN(C)CC5)cn4)ncc3F)cc2C12CCCC2" , what pIC50 is on record?
Result: 7.35

---

Assay: AUC (0 to 48 hrs) in CD-1 mouse plasma at 10 mg/kg, po administered as single dose by LC-MS/MS analysis
Type: ADME, organism-based
Design: time < 48 hr, dose 10 mg/kg, route oral
measurement name: AUC(0-t) at 48 h (ng·h/mL)
Please reply with the bare figure in ng·h/mL and do not write the unit itself.

Task: For the molecule CC1=Nc2c(F)cc(-c3nc(Nc4ccc(C5CCN(C)CC5)cn4)ncc3F)cc2C12CCCC2 [CROZBACICLIB] , what AUC(0-t) at 48 h is on record?
Result: 9060

Values compiled from ChEMBL document CHEMBL4251601.
